# method description: physchem
# conditions: pH 2.2, aqueous buffer, kinetic from dmso stock, Solubility (pH 2.2)
observation type: solubility at 24 h (µg/mL)

I. Cc1ccc(OCc2cc(C)c3c(c2)CCN(C2CCOCC2)C3)c(-c2cccc(N3C[C@@H]4C[C@]4(C(=O)O)C3)n2)c1
II. COC[C@H]1N(c2cccc(-c3cccc(C)c3OCc3cc(F)c4c(c3)CCN(C3CCOCC3)C4)n2)C[C@@H]2C[C@@]21C(=O)O
Request: For the pair I and II , which entry has the numerically smaller recorded solubility at 24 h? # answer = label of selected item
Result: I

---

# method description: physchem
# conditions: pH 2.2, aqueous buffer, kinetic from dmso stock, Solubility (pH 2.2)
observation type: solubility at 24 h (µg/mL)

compound: CO[C@H]1CN(c2cccc(-c3cc(C)ccc3OCc3ccc4c(c3C)CCN(C3CCOCC3)C4=O)n2)CC[C@H]1C(=O)O [Compound 205]
units text: µg/mL
solubility at 24 h: 109
--
compound: CO[C@H]1CN(c2nc(-c3cccc(Cl)c3OCc3ccc4c(c3C)CCN(C3CCOCC3)C4)cs2)CC[C@H]1C(=O)O [Compound 207]
units text: µg/mL
solubility at 24 h: 143
--
compound: Cc1ccc(OCc2ccc3c(c2C)CCN(C2COC2)CC3)c(-c2cccc(N3C[C@@H]4C[C@]4(C(=O)O)C3)n2)c1 [Compound 42]
units text: µg/mL
solubility at 24 h: 96
--
compound: CO[C@H]1CN(c2nc(-c3cccc(C)c3OCc3cc(C)c4c(c3)CCN(C3CCOCC3)C4)cs2)CC[C@H]1C(=O)O [Compound 167]
units text: µg/mL
solubility at 24 h: 110
--
compound: Cc1cccc(-c2cccc(N3C[C@@H]4C[C@]4(C(=O)O)C3)n2)c1OCc1ccc2c(c1)CCN(C1COC1)CC2 [Compound 32]
units text: µg/mL
solubility at 24 h: 120
--
compound: CCO[C@H]1CN(c2nccc(-c3cccc(C)c3OCc3cc4c(c(OC)c3)CN(C3CCOCC3)CC4)n2)CC[C@H]1C(=O)O [Compound 246]
units text: µg/mL
solubility at 24 h: 117
--
compound: COC[C@H]1N(c2cccc(-c3cccc(C)c3OCc3ccc4c(c3C)CCN(C3CCOCC3)CC4)n2)C[C@@H]2C[C@@]21C(=O)O [Compound 61]
units text: µg/mL
solubility at 24 h: 110
--
compound: CO[C@H]1CN(c2cccc(-c3cccc(C)c3OCc3ccc4c(c3C)CCN(C3CCOCC3)CC4)n2)CC[C@H]1C(=O)O [Compound 197]
units text: µg/mL
solubility at 24 h: 110
--
compound: CO[C@@H]1CN(c2cccc(-c3cccc(C)c3OCc3ccc4c(c3C)CCN([C@@H]3CCOC3)CC4)n2)CC[C@@H]1C(=O)O [Compound 302]
units text: µg/mL
solubility at 24 h: 148
--
compound: CCO[C@@H]1CN(c2nc(-c3cc(C)ccc3OCc3cc(C)c4c(c3F)CCN(C3CCOCC3)C4)cs2)CC[C@@H]1C(=O)O [Compound 269]
units text: µg/mL
solubility at 24 h: 115
--
compound: Cc1cc(COc2c(C)cccc2-c2csc(N3CC[C@@]4(C(=O)O)C[C@H]4C3)n2)cc2c1CN(C1CCOCC1)CC2 [Compound 96]
units text: µg/mL
solubility at 24 h: 120
--
compound: COc1cc(COc2c(C)cccc2-c2csc(N3CC[C@@H](C(=O)O)[C@@H](OC)C3)n2)cc2c1CN(C1CCOCC1)CC2 [Compound 171]
units text: µg/mL
solubility at 24 h: 140
--
compound: CCc1cc(COc2c(C)cccc2-c2cccc(N3C[C@@H]4C[C@]4(C(=O)O)[C@H]3COC)n2)cc2c1CN(C1COC1)CC2 [Compound 54]
units text: µg/mL
solubility at 24 h: 130
--
compound: COCc1cc(COc2c(C)cccc2-c2cccc(N3C[C@@H]4C[C@]4(C(=O)O)[C@H]3COC)n2)cc2c1CN(C1CCOC1)CC2 (some centres unmarked) [Compound 280]
units text: µg/mL
solubility at 24 h: 120
--
compound: CO[C@H]1CN(c2cccc(-c3cc(C)ccc3OCc3cc(C)c4c(c3)CCN(C3CCOCC3)C4)n2)CC[C@H]1C(=O)O [Compound 72]
units text: µg/mL
solubility at 24 h: 120
--
compound: O=C(O)[C@@]12CCN(c3nc(-c4ccccc4OCc4ccc5c(c4)CCN(C4CCOCC4)C5)cs3)C[C@@H]1C2 [Compound 82]
units text: µg/mL
solubility at 24 h: 100
--
compound: Cc1cccc(-c2csc(N3CC[C@@]4(C(=O)O)C[C@H]4C3)n2)c1OCc1ccc2c(c1)CCN(C1CCOCC1)C2 [Compound 84]
units text: µg/mL
solubility at 24 h: 120
--
compound: Cc1ccc(OCc2ccc3c(c2C)CCN(C2COC2)C3)c(-c2cccc(N3CC[C@@]4(C(=O)O)C[C@H]4C3)n2)c1 [Compound 19]
units text: µg/mL
solubility at 24 h: 110
--
compound: CO[C@@H]1CN(c2nc(-c3cccc(C)c3OCc3cc(C)c4c(c3)CCN(CC3COCCO3)C4)cs2)CC[C@@H]1C(=O)O (some centres unmarked) [Compound 175]
units text: µg/mL
solubility at 24 h: 140
--
compound: Cc1ccc(OCc2ccc3c(c2C)CCN(C2CCOCC2)C3)c(-c2csc(N3CC[C@@]4(C(=O)O)C[C@H]4C3)n2)c1 [Compound 115]
units text: µg/mL
solubility at 24 h: 130
--
compound: COC[C@H]1N(c2cccc(-c3cc(C)ccc3OCc3cc(C)c4c(c3)CCN(C3CCOCC3)C4)n2)C[C@@H]2C[C@@]21C(=O)O [Compound 219]
units text: µg/mL
solubility at 24 h: 146
--
compound: Cc1c(COc2ccccc2-c2cccc(N3CC[C@@]4(C(=O)O)C[C@H]4C3)n2)ccc2c1CCN(C(C)c1ccccn1)C2 (some centres unmarked) [Compound 306]
units text: µg/mL
solubility at 24 h: 141
--
compound: COCc1cc(COc2c(C)cccc2-c2cccc(N3CC[C@H](C(=O)O)[C@H](OC)C3)n2)cc2c1CN(C1CCOCC1)CC2 [Compound 286]
units text: µg/mL
solubility at 24 h: 149
--
compound: COc1cc(COc2c(C)cccc2-c2cccc(N3C[C@@H]4C[C@]4(C(=O)O)C3)n2)cc2c1CN(C1COC1)CC2 [Compound 28]
units text: µg/mL
solubility at 24 h: 110
--
compound: Cc1c(COc2ccccc2-c2cccc(N3CC[C@@]4(C(=O)O)C[C@H]4C3)n2)ccc2c1CCN([C@H]1CCOC1)C2 [Compound 7]
units text: µg/mL
solubility at 24 h: 150
--
compound: Cc1c(COc2ccccc2-c2csc(N3CC[C@@]4(C(=O)O)C[C@H]4C3)n2)ccc2c1CCN(C1CCOCC1)C2 [Compound 83]
units text: µg/mL
solubility at 24 h: 120
